molecular target: T1, human serum albumin (human, UniProt P02768 25-609); experiment: SPR, Fab captured; albumin taken as HSA;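 further: antibody held on a capture surface, albumin injected for 3 min association then dissociation followed, signals corrected using a blank reference flow cell and buffer-only injections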
T1 construct: mature; Bought purified serum albumin; also called HSA; Human albumin
PARAMETER_MEASURED: koff (s⁻¹)
Note: unit s⁻¹ is implicit; provide only the numeric part.

Incoming: Record request: koff value, item CA645 gL4gH41 Fab (Fab, V domains shown, Fab: human gamma1 CH1, human kappa (Km3); Kabat numbering) VH: EVQLLESGGGLVQPGGSLRLSCAVSGIDLSNYAINWVRQAPGKGLEWIGIIWASGTTFYATWAKGRFTISRDNSKNTVYLQMNSLRAEDTAVYYCARTVPDYSTAPYFDLWGQGTLVTVSS VL: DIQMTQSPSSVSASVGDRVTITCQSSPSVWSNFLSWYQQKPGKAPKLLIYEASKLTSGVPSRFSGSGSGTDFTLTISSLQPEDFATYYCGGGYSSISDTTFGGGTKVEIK
Outgoing: 0.000351

Incoming: I would be grateful if you could share the reported koff for CA645 gL4gH30 Fab (Fab, V domains shown, Fab: human gamma1 CH1, human kappa (Km3); Kabat numbering) VH: EVQLLESGGGLVQPGGSLRLSCAVSGIDLSNYAINWVRQAPGKGLEWIGIIWTSGTTFYATWAKGRFTISRDNSKNTVYLQMNSLRAEDTAVYYCARTVPGYSTAPYFDLWGQGTLVTVSS VL: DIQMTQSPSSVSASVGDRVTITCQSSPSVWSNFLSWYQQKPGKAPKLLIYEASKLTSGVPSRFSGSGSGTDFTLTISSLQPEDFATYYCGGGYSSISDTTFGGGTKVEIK .
Outgoing: 0.00102

Incoming: What does the data say about its koff? Entry: CA645 gL12gH5 Fab (Fab, V domains shown, Fab: human gamma1 CH1, human kappa (Km3); Kabat numbering) VH: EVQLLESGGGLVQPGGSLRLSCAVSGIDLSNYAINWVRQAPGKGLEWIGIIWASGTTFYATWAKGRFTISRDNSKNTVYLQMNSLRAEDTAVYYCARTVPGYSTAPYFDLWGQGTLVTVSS VL: DIQMTQSPSSVSASVGDRVTITCQSSPDVWSNFLSWYQQKPGKAPKLLIYEASKLTSGVPSRFSGSGSGTDFTLTISSLQPEDFATYYCGGGYSSISDTTFGGGTKVEIK
Outgoing: 0.000104
